system.tested: human recombinant ENPP1 (Homo sapiens, UniProt P22413)
Sequence (P22413 1-925): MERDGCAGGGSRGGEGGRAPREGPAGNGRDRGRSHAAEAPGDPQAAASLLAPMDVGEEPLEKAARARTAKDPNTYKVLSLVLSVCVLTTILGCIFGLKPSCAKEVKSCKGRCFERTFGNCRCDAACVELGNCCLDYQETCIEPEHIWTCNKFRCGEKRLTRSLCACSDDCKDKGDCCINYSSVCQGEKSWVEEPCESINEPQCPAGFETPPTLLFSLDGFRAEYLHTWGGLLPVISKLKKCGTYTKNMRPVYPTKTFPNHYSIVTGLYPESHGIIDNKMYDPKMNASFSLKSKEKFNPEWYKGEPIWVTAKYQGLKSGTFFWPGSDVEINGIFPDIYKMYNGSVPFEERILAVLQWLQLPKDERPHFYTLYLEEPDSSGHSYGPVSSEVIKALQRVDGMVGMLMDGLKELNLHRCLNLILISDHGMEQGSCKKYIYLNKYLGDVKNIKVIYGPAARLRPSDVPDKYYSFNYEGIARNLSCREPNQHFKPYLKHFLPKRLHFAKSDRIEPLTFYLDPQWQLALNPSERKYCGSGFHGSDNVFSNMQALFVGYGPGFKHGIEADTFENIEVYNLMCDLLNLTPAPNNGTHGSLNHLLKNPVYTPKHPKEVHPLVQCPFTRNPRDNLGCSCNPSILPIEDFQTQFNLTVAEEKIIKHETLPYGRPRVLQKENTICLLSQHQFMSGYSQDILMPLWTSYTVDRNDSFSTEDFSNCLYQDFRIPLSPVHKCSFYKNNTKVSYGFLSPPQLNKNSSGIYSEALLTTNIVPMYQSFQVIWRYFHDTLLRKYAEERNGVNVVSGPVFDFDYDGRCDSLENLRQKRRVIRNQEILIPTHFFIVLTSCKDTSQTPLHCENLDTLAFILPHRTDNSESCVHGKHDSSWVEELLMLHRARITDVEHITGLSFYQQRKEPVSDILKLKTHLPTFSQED
measurement.notes: ENPP1 inhibition with 2′,3′-cGAMP substrate (AMP-Glo assay)
Assay type: biochemical
run.parameters: Ki (AMP-pNP)/Ki (2′3′-cGAMP)
# Substrate Selectivity Ki Ratio AMP-pNP/2′3′cGAMP per entry

Sample records with Substrate Selectivity Ki Ratio AMP-pNP/2′3′cGAMP:
[[record]]
structure_as_smiles = "COc1cc2nc(-c3cccnc3)nc(N3CCC(CCNS(C)(=O)=O)CC3)c2cc1OC"
system_tested = "human recombinant ENPP1 (Homo sapiens, UniProt P22413)"
measured = ">23.9"

[[record]]
structure_as_smiles = "COc1cc2nccc(Oc3ccc(CS(N)(=O)=O)cc3)c2cc1OC"
system_tested = "human recombinant ENPP1 (Homo sapiens, UniProt P22413)"
measured = ">325"

[[record]]
structure_as_smiles = "COc1ccc(CC(=O)CCC2=Nc3c(N)ccnc3C2)cc1OC"
system_tested = "human recombinant ENPP1 (Homo sapiens, UniProt P22413)"
measured = ">37500"

[[record]]
structure_as_smiles = "COc1cc2ncnc(N3CCC4(CC3)CN(S(N)(=O)=O)C4)c2cc1OC"
system_tested = "human recombinant ENPP1 (Homo sapiens, UniProt P22413)"
measured = 18.7


Shift focus to the following entry.
Q) Can you share its Substrate Selectivity Ki Ratio AMP-pNP/2′3′cGAMP? I mean this compound: Cn1cnc2cccc(N3CCC(CCCS(C)(=O)=O)CC3)c21
A) >128
